Reference source for all entries: the supplement of paper PMC9112550

system: Escherichia coli TOP10; assay: shrunken log2 fold change of peptide-encoding DNA abundance (4.5 h post-induction vs induction); higher = less antimicrobial activity (less host growth inhibition); details: time post-induction: 4.5 h; library: site-saturation at positions 5, 18, 19, 20;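 also: peptides expressed intracellularly from a pBAD plasmid library in pooled LB shake-flask culture, induced with 0.3% L-arabinose, DNA abundance read by NGS, three biological replicates, DESeq2 with apeglm shrinkage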

item_sequence	measured_on	shrunken log2 fold change
RRIRIRPPRLPRPRPRPGRTPRP	Escherichia coli TOP10	0.0928
RRIRPRPPRLPRPRPRPHRKPRP	Escherichia coli TOP10	-0.0741
RRIRVRPPRLPRPRPRPSALPRP	Escherichia coli TOP10	-0.0271
RRIRARPPRLPRPRPRPGVQPRP	Escherichia coli TOP10	0.0878
RRIRFRPPRLPRPRPRPHKAPRP	Escherichia coli TOP10	0.0324
RRIRSRPPRLPRPRPRPHTLPRP	Escherichia coli TOP10	-0.116
RRIRYRPPRLPRPRPRPDNFPRP	Escherichia coli TOP10	-1.09
RRIRYRPPRLPRPRPRPLIQPRP	Escherichia coli TOP10	-0.559
RRIRCRPPRLPRPRPRPQNSPRP	Escherichia coli TOP10	-0.194
RRIRHRPPRLPRPRPRPGVRPRP	Escherichia coli TOP10	0.175
RRIRIRPPRLPRPRPRPKVQPRP	Escherichia coli TOP10	-0.491
RRIRMRPPRLPRPRPRPSNSPRP	Escherichia coli TOP10	-0.192
RRIRQRPPRLPRPRPRPCLEPRP	Escherichia coli TOP10	0.0782
RRIRLRPPRLPRPRPRPDVCPRP	Escherichia coli TOP10	0.0271
RRIRERPPRLPRPRPRPICGPRP	Escherichia coli TOP10	0.0966
